src = the supplement of paper PMC12783771

Give sfGFP reporter fluorescence for every item shown.
B1: library; numbered along this chain (parent)
chain: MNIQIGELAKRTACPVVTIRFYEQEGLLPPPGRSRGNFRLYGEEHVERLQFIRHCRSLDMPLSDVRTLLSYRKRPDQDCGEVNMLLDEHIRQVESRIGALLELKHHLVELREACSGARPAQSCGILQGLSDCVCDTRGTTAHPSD

# Variants of: B1
# ASSAY_EXPLANATION: sfGFP reporter fluorescence (15 h) (µM FITC); higher = stronger transcriptional activation
# MEASUREMENT_PARAMETERS: library round: Round 0; ligand: 30 µM Zn

For the variant "E43A" , what sfGFP reporter fluorescence is on record?
1.66

For the variant "V16H" , what sfGFP reporter fluorescence is on record?
0.447

For the variant "C123R" , what sfGFP reporter fluorescence is on record?
0.0574

For the variant "R33I" , what sfGFP reporter fluorescence is on record?
0.0654
